Test system: NCI-H522 lung
Experiment: NCI-60 one-dose screen, 48 h
Settings: 10 µM unless noted
About 83,000 compounds went through this panel and 20% of them were active in at least one assay; those are over-represented in the sample as a whole. Calls of active or inactive are those of the source. How the source made its calls: active means growth percent below 10; inactive means the rest.
Hi! Could you answer with just one of these? y for active, n for inactive

Exercise: Assay outcome for `CS(=O)(=O)Nc1cc(-c2ccc3ncnc(Nc4ccc5c(cnn5Cc5cccnc5)c4)c3c2)cnc1Cl` : what was it?
Key: n

Next:
Exercise: Assay outcome for `COC1=CC(c2ccc[nH]2)=N/C1=C\c1[nH]c(C)c(CC(=O)OCc2ccccc2)c1C` : what was it?
Key: y

Exercise: // repeat for `Cc1ccc(C)c(-n2c(-c3ccc(Br)cc3)csc2=NC(=O)c2ccccc2F)c1` and report
Key: n

---

System: SF-295 CNS
Assay: NCI-60 one-dose screen, 48 h (100 = growth as untreated, 0 = no growth, -100 = all killed)
Details: 10 µM unless noted
Compounds without any hit were thinned out: in the full panel of roughly 83,000, 20% have a hit.
// reported growth for each item listed
Numbers only; they are read as %.

# annotated cases, reported growth shown
Exercise: // returns reported growth for input `O=C(CCCCCCCCC(=O)N/N=C\c1cc(Cl)ccc1O)N/N=C\c1cc(Cl)ccc1O`
Key: 21.9

Exercise: // repeat for `C/C(C=O)=C\c1ccc2c(c1)OCO2` and report
Key: 104

Lab note: next compound to report on.
Exercise: // returns reported growth for input `COc1ccc(-c2cc(-c3ccc(OC)cc3)nc(NCCCNc3ccnc4cc(Cl)ccc34)n2)cc1`
Key: 83.8

---

Tested on: SK-MEL-5 melanoma
Test: NCI-60 one-dose screen, 48 h (100 = growth as untreated, 0 = no growth, -100 = all killed)
Conditions: 10 µM unless noted
About 83,000 compounds went through this panel and 20% of them were active in at least one assay; those are over-represented in the sample as a whole.
assay_endpoint: growth (%)
Numbers only; they are read as %.

# annotated cases, reported growth shown
Exercise: Lookup: growth / SK-MEL-5 melanoma / `CC(C)(C)c1cc(C=Nc2cccc(C(F)(F)F)c2)c(O)c(C(C)(C)C)c1`
Key: 99.9

Exercise: // repeat for `COc1ccc2c(c1)c(-c1nc(-c3cn(C)c4ncccc34)cs1)cn2CCO` and report
Key: 74.2

Next:
Exercise: Lookup: growth / SK-MEL-5 melanoma / `COc1ccc(C/C(C)=C(/c2ccc(OCCN3CCCCCC3)cc2)c2ccc(OC(=O)NCc3ccccc3)cc2)cc1`
Key: 91.2

Exercise: // repeat for `Cn1cc(C(=O)c2nc(-c3c[nH]c4ccc(Br)cc34)no2)c2cc(Br)ccc21` and report
Key: 83.4

---

// reported growth for each item listed
Test system: NCI/ADR-RES ovarian
Test: NCI-60 one-dose screen, 48 h (100 = growth as untreated, 0 = no growth, -100 = all killed)
Settings: 10 µM unless noted
This is part of a sample that, as a whole, favours compounds with a hit. Of some 83,000 tested, about 20% had one in any assay.
Numbers only; they are read as %.

# annotated cases, reported growth shown
Exercise: // returns reported growth for input `Cc1[nH]c(/C=C/C(=O)c2ccc(C(F)(F)F)c(F)c2)c(C)c1C(=O)NCC(C)C`
Key: 98.9

Exercise: // repeat for `CCOc1ccc(/C=N\N=C\c2ccc(OCC)cc2)cc1` and report
Key: 78.1

Exercise: // repeat for `O=c1[nH]c(-c2ccc(Cl)cc2)cn1-c1ccc(-n2cc(-c3ccc(Cl)cc3)[nH]c2=O)cc1` and report
Key: 108

Exercise: // repeat for `CCOC(=O)CSc1nc2sc3c(c2c(=O)n1-c1ccc([N+](=O)[O-])cc1)CCCCC3` and report
Key: 84.3

Exercise: // repeat for `COc1cc2c3c(n(CCCCNCCCn4c5c(c6cc(OC)c(OC)cc6c4=O)C(=O)c4cc6c(cc4-5)OCO6)c(=O)c2cc1OC)-c1cc2c(cc1C3=O)OCO2` and report
Key: 98.6

Exercise: // repeat for COC(c1ccc2ccccc2c1)C(C)C(F)F (stereo unspecified) and report
Key: 107

Lab note: next compound to report on.
Exercise: // returns reported growth for input `O=C(c1ccc(Cl)cc1Cl)N1c2ccccc2Sc2ccccc21`
Key: 60.9

---

// reported growth for each item listed
Tested on: NCI-H23 lung
Test: NCI-60 one-dose screen, 48 h (100 = growth as untreated, 0 = no growth, -100 = all killed)
Conditions: 10 µM unless noted
Compounds without any hit were thinned out: in the full panel of roughly 83,000, 20% have a hit.
Numbers only; they are read as %.

Exercise: // returns reported growth for input CC(CN)[C@@H]1CC[C@]2(CO)CC[C@]3(C)[C@H](CC[C@@H]4[C@@]5(C)CCC(N)C(C)(C)[C@@H]5CC[C@]43C)[C@@H]12 (stereo partly drawn)
Key: -29.1

Exercise: // repeat for `CC1(C)CC[C@]2(C(=O)N3CCOCC3)CC[C@]3(C)C(=CC[C@@H]4[C@@]5(C)C/C(=C/c6ccncc6)C(=O)C(C)(C)[C@@H]5CC[C@]43C)[C@@H]2C1` and report
Key: 19.5

Lab note: next compound to report on.
Exercise: // returns reported growth for input `COc1cc(-c2nc3occn3c2-c2ccnc(NCCCNS(=O)(=O)c3ccccc3)n2)ccc1F`
Key: 45.6

---

System: SN12C renal
Test: NCI-60 one-dose screen, 48 h (100 = growth as untreated, 0 = no growth, -100 = all killed)
Settings: 10 µM unless noted
About 83,000 compounds went through this panel and 20% of them were active in at least one assay; those are over-represented in the sample as a whole. The source made the active and inactive calls. Rule for the calls: active = growth percent below 10; inactive = the rest.
// reported growth for each item listed

# annotated cases, reported growth shown
Exercise: // returns reported growth for input CSCCC(NC(=O)c1ccccc1)C(=O)N/N=C1\S/C(=C/c2ccc(Cl)cc2)C(=O)N1C (stereo not given)
Key: 97.3% (inactive)

Exercise: // repeat for `C#CC#CC#CC#CC#CC#CC#CC#CC[C@H]1OC[C@@H](COC(=O)O[C@@H](C(=O)O[C@H]2C[C@@]3(O)[C@@H](OC(=O)c4ccccc4)[C@@H]4[C@]5(OC(C)=O)CO[C@@H]5C[C@H](O)[C@@]4(C)C(=O)[C@H](OC(C)=O)C(=C2C)C3(C)C)[C@@H](NC(=O)c2ccccc2)c2ccccc2)O1` and report
Key: 50.2% (inactive)

Exercise: // repeat for `Cc1ccc2nc(Cl)c(Cn3nnnc3SCc3ccccc3)cc2c1` and report
Key: 92.8% (inactive)

Next:
Exercise: // returns reported growth for input `CCOC(=O)/C=C/c1c(C)[nH]c(=O)[nH]c1=O`
Key: 95.4% (inactive)

Exercise: // repeat for `COc1ccc(-c2ccc(-c3ccc(C(=N)N)cn3)s2)cc1` and report
Key: 86.7% (inactive)

Exercise: // repeat for `CCOC(=O)c1n[nH]n2c1nc(=O)c1cnn(C)c12` and report
Key: 105% (inactive)

Exercise: // repeat for `CNC(=O)c1c(NC(=O)c2ccc(C(C)(C)C)cc2)sc2c(CN(C)C)c(O)ccc12` and report
Key: 4.62% (active)

Exercise: // repeat for `O=C(Cn1nnc2ccccc21)Nc1ccc(-c2nc3ccccc3s2)cc1` and report
Key: 101% (inactive)

Exercise: // repeat for `O=C(O)c1cccc(N/C=C/C(=O)c2cc3cc(Br)ccc3oc2=O)c1` and report
Key: 94.1% (inactive)

---

Test system: TK-10 renal
Experiment: NCI-60 one-dose screen, 48 h (100 = growth as untreated, 0 = no growth, -100 = all killed)
Settings: 10 µM unless noted
The panel holds about 83,000 compounds, 20% with a hit somewhere; the sample as a whole holds those more often. Activity calls are given as the source filed them. Rule for the calls: active = growth percent below 10; inactive = the rest.
assay_endpoint: growth

Exercise: // returns reported growth for input `Cc1ncc(C(=O)Nc2ccc(CN3CCN(C)CC3)c(C(F)(F)F)c2)cc1C#Cc1cnc(N)c2ccncc12`
Key: -59% (active)

Exercise: // repeat for `COc1cc2c(c(OC)c1OC)C(=O)N[C@@H]1[C@@H](O)[C@@H](O)[C@H](O)C[C@@H]21` and report
Key: 98.5% (inactive)

Exercise: // repeat for `FC(F)(F)c1[nH]ncc1-c1nc2c(N3CCCCC3)cc3[nH]ncc3c2c2c1CCCC2` and report
Key: 1.88% (active)

Exercise: // repeat for `CCN(CC)CCNC(=O)c1ccc(-c2nc3ccc4[nH]ncc4c3c3c2CCCC3)cc1` and report
Key: 47.7% (inactive)

Exercise: // repeat for `CN(C)c1ccc(C(=NO)c2ccc(N(C)C)cc2)cc1` and report
Key: 56.6% (inactive)

Next:
Exercise: // returns reported growth for input `CCCNc1nc2ccccc2c2c(=O)c3cccc(Cl)c3sc12`
Key: 129% (inactive)

Exercise: // repeat for `Clc1nn2c(Cn3cnc4c(NCc5ccccc5)ncnc43)nnc2c2ccccc12` and report
Key: 40.5% (inactive)

Exercise: // repeat for `O=C(N/N=C/c1ccc(Cl)cc1Cl)c1ccc2nc(-c3ccc(Cl)cc3)[nH]c2c1` and report
Key: -4.33% (active)
